Biological target: Rac GTPase-activating protein 1 (Homo sapiens)
Test: blockers of MgcRacGAP-driven Rac1 GTP hydrolysis – biochemical, ADP Hunter fluorescence, primary and confirmatory, confirmation (AID 624330);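 note: fluorescence reports GDP produced by GAP-driven GTP hydrolysis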
Conditions: MgcRacGAP-stimulated Rac1 GTP hydrolysis, at 30 µM, stronger effect = higher value, GST-tagged Rac1 F28L mutant substrate
Among all 340,000 compounds or so, about 2,100 (0.62%) were called active. The list is a sample of the results. Results with a measured potency or affinity are listed apart.
measurement.name: inhibition (%)
Write down the numeric answer in % and omit the unit.

Exam item: Answer with reported inhibition of Oc1ccc(/C=N/NC(=S)NC2CC3CCC2C3)cc1 (stereo unspecified)
Marked response: 16.9

Exam item: Please supply the value of reported inhibition for the item COC(=O)c1cc(S(=O)(=O)N2CCC(c3cc(OC)ccc3OC)C2)c[nH]1 (stereo unspecified)
Marked response: 8.61

Exam item: Consider the compound `CCCc1nc(NCc2ccccc2)c(C#N)c2c1CCCC2` and give its recorded inhibition.
Marked response: 8.86

Exam item: Please report inhibition for the following compound: `CCN(CC)c1ccc(C(=C2C=CC(=[N+](CC)CC)C=C2)c2ccc(S(=O)(=O)O)cc2S(=O)(=O)[O-])cc1`
Marked response: 25.4

Exam item: Give the reported inhibition for this compound. COc1cccc(/C=N/NC(=S)NC2CC3CCC2C3)c1OC (stereo unspecified)
Marked response: -1.35

Exam item: Provide only the value of recorded inhibition for `CCN(CC)CCN(CC(=O)Nc1c(C)cc(C)cc1C)C(=O)c1ccccc1`
Marked response: 14.8

---

Target: Rac GTPase-activating protein 1 (Homo sapiens)
Assay: blockers of MgcRacGAP-driven Rac1 GTP hydrolysis – biochemical, ADP Hunter fluorescence, primary and confirmatory, confirmation (AID 624330);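 note: fluorescence reports GDP produced by GAP-driven GTP hydrolysis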
Conditions: MgcRacGAP-stimulated Rac1 GTP hydrolysis, at 30 µM, stronger effect = higher value, GST-tagged Rac1 F28L mutant substrate
Out of some 340,000 compounds screened, about 2,100 (0.62%) were called active. Not all results are given here. Measured potencies and affinities stand elsewhere.
measurement.name: inhibition (%)
Could you give me the number in %? Just the number is fine.

Exam item: Specify inhibition for `Cc1cc(-c2ccccc2)nc(N/N=C/c2ccccc2F)n1` and stop.
Marked response: 2.38

Exam item: Recall and state the measured inhibition for `COc1cc(CNCc2ccc(OC)c(OC)c2OC)cc(OC)c1` .
Marked response: 15.6

Exam item: Please indicate inhibition recorded for `COc1ccccc1CNC1CCN(Cc2ccccc2)CC1`
Marked response: -3.78

Exam item: Provide only the value of recorded inhibition for `COc1ccc2[nH]c(=O)c(CNc3ccccc3)cc2c1`
Marked response: 9.73

Exam item: Provide one value: measured inhibition of `CN1CC(=O)N/C1=N\C(=O)Nc1ccc2c(c1)N(C)C(=O)CS2`
Marked response: 2.74

Exam item: Return inhibition (reported value) for this molecule: `C=CCN(CC=C)CCOc1ccc(OC(C)C)cc1`
Marked response: 26.4

Exam item: Recall and state the measured inhibition for `Cc1cc(=O)oc2c(CN3CCCCC3)c(O)ccc12` .
Marked response: 2.34

Exam item: Read off the recorded inhibition for `Oc1ccc(/C=N/Nc2ccccc2)cc1`
Marked response: 12.9

Exam item: Return the recorded inhibition value; entry: `Oc1[nH]c2ccccc2c1N=Nc1ccc(F)cc1`
Marked response: 4.29

Exam item: Consider the molecule `CC(=O)Nc1ccc(S(=O)(=O)NNC(=O)c2ccc([N+](=O)[O-])cc2)cc1` . State its measured inhibition.
Marked response: 1.83

Exam item: Quote inhibition reported for `Oc1ccccc1C1Nc2cccc3cccc(c23)N1` please.
Marked response: 26.2

Exam item: Specify inhibition for `Cc1ccccc1NC(=O)c1cccc2c1C(=O)N(C1CCCCC1)C2` and stop.
Marked response: 6.92

Exam item: Tell me inhibition reported for `COc1ccccc1Nc1nnc(SCc2cc(=O)n3cc(C)ccc3n2)s1`
Marked response: 10.9

Exam item: Give the reported inhibition for this molecule. `Fc1ccc(CNC2CCN(Cc3ccccc3)CC2)cc1`
Marked response: -1.76

Exam item: Given the molecule Cc1csc(SCC(=O)NC2CCC(C)CC2)n1 (stereo not drawn) , write its reported inhibition.
Marked response: -6.91

Exam item: For the molecule CCOc1cccc(C(=O)NNC(=O)C2C3C=CC(C3)C2C(=O)O)c1 (stereo not drawn) , report inhibition.
Marked response: 5.45

Exam item: Please report inhibition for the following molecule: `COc1ccc(C(=O)NCc2cc(C)nc3ccccc23)cc1`
Marked response: -16.4

Exam item: Read the entry `CCCCCCN1C[C@@H](O)[C@H](n2cc(-c3ccc(F)cc3)nn2)C[C@@H]1c1ccc(C)cc1` and write its reported inhibition.
Marked response: 6.07

Exam item: // fetch inhibition given entry `O=C(COc1ncnc2cc([N+](=O)[O-])ccc12)NCCc1ccc(Cl)cc1`
Marked response: -7.58

Exam item: Give the measured inhibition for `COC(=O)c1ccccc1NC(=S)NC(=O)COc1ccccc1Cl`
Marked response: 2.61

Exam item: Supply reported inhibition belonging to this molecule: `COc1ccc(O)c(/C=N/Nc2nc(C)cc(-c3ccccc3)n2)c1`
Marked response: 3.11

Exam item: For the molecule `COc1ccc(C2Nc3cccc4cccc(c34)N2)cc1` , give its reported inhibition.
Marked response: 16

Exam item: Complete the entry with inhibition for `COc1cc(CNCc2cccc3ccccc23)cc(OC)c1`
Marked response: 25.2

Exam item: Specify reported inhibition for the molecule shown: `COc1cc(-c2cc(-c3ccccc3)nc(SCC(=O)Nc3nccs3)c2C#N)cc(OC)c1OC`
Marked response: -0.01

Exam item: // Input: O=C(Cn1nnc(-c2ccc(Cl)cc2)n1)NC1CCS(=O)(=O)C1 (stereo not drawn) . Output its inhibition only.
Marked response: 9.8

Exam item: Specify measured inhibition for `Cc1cccc(C)c1Nc1c(-c2ccc(N3CCOCC3)cc2)nc2cnccn12` .
Marked response: 13.6

Exam item: For `C/C(=N\Nc1nc2ccccc2nc1C)c1ccccc1O` , write its inhibition.
Marked response: -0.02

Exam item: For the molecule `O=[N+]([O-])c1ccccc1S(=O)(=O)N1CCCc2ccccc21` , give its reported inhibition.
Marked response: -4.93

---

Target: Rac GTPase-activating protein 1 (Homo sapiens)
Test: blockers of MgcRacGAP-driven Rac1 GTP hydrolysis – biochemical, ADP Hunter fluorescence, primary and confirmatory, confirmation (AID 624330);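 note: fluorescence reports GDP produced by GAP-driven GTP hydrolysis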
Settings: MgcRacGAP-stimulated Rac1 GTP hydrolysis, at 30 µM, stronger effect = higher value, GST-tagged Rac1 F28L mutant substrate
In all, about 340,000 compounds went through this assay and about 2,100 (0.62%) were called active. A selection follows. Entries with a potency or affinity are not part of this list.
Hi, to clarify the labels: 1 (yes) covers inhibition from 10% upward, 0 (no) covers anything below 10%.

Exam item: Determine whether measured inhibition meets or exceeds 10% for `CCC(CC)NC(=O)COC(=O)c1cc(Br)ccc1Cl`
Marked response: 0 (no)

Exam item: Does inhibition meet or surpass 10% for `CCCN(C(=O)c1cccs1)c1c(N)n(Cc2ccccc2)c(=O)[nH]c1=O` ?
Marked response: 0 (no)

Exam item: Check this compound for inhibition at or above 10%: `CCC[C@@H](CN1CCC[C@H]1CN1C(N)=NC[C@@H]1Cc1ccccc1)N1C[C@@H]([C@H](C)CC)N(CCCC2CCCC2)C1=N`
Marked response: 1 (yes)

Exam item: Please indicate if the recorded inhibition for CCCCN(C(=O)Cn1nnc2ccccc21)C(C(=O)NCCOC)c1cccs1 (stereo unspecified) meets or exceeds 10%.
Marked response: 0 (no)

Exam item: State whether the measured inhibition reaches 10%, counting equality as reaching it, for `O=c1[nH]c(SCc2ccccc2)nc2c1cnn2-c1ccc(F)cc1`
Marked response: 1 (yes)

Exam item: Hi team, for `C#CCOCCOCCOCCNc1nc(N2CCOCC2)nc(N2CCN(C(=O)[C@H](CCCCN)n3cc(CN)nn3)CC2)n1` , is the recorded inhibition at or above 10%?
Marked response: 1 (yes)

Exam item: // inclusive: inhibition at least 10%? input: `COCC(=O)N1CCC(Oc2ccc(C(=O)N(C)Cc3nccs3)cc2)CC1`
Marked response: 0 (no)

Exam item: Determine whether this compound has inhibition no lower than 10%: `COc1ccc(CCNC(=O)CSc2n[nH]c(N)n2)cc1`
Marked response: 0 (no)

Exam item: Quick check, inhibition >= 10%? C#CCOCCOCCOCCNc1nc(N2CCN(C(=O)C([C@@H](C)O)n3cc([C@@H](N)CCCCN)nn3)CC2)nc(N2CCN(C(=O)[C@H](CCCCN)n3cc([C@@H](N)CC(N)=O)nn3)CC2)n1 (stereo partly specified)
Marked response: 1 (yes)

Exam item: Check if inhibition >= 10% (inclusive). Item: `COc1ccc(O)c(/C=N/NC(=O)c2cccc(N3CCCC3=O)c2)c1`
Marked response: 0 (no)

Exam item: Please check the record `NC(=O)COc1ccc(C(=O)NCC2(N3CCOCC3)CCCCC2)cc1` and state if its inhibition is at or above 10%.
Marked response: 0 (no)

Exam item: Does the compound `C[C@@H]1COC(=O)CCC/C=C\C[C@@H](CC(=O)N(CCO)Cc2ccccc2)C(=O)N1` have recorded inhibition that is 10% or more?
Marked response: 0 (no)

Exam item: inhibition >= 10% for `C#CCOCCOCCOCCNc1nc(N2CCN(C(=O)[C@H](CCC(=O)O)n3cc(CN)nn3)CC2)nc(N2CCN(C(=O)[C@H](CCCCN)n3cc([C@@H](N)CC(N)=O)nn3)CC2)n1` ?
Marked response: 0 (no)

Exam item: // inclusive: inhibition at least 10%? input: `COc1ccc(/C=N/NC(=O)c2cccnc2)cc1O`
Marked response: 1 (yes)

Exam item: Evaluate `C/C(=N\OC(=O)Nc1ccc(Cl)cc1)c1ccc(F)c(F)c1` : inhibition at minimum 10%?
Marked response: 0 (no)
